test: hypoxia reporter signal reduction in M. tuberculosis – fluorescence, absorbance growth readout, primary screen (AID 1159583); details: M. tuberculosis hypoxia-regulated fluorescent reporter, active compounds read high, concentration not given here
The whole screen tested about 300,000 compounds, of which about 310 (0.1%) were called active. This excerpt belongs to a sample that is enriched for actives.
Assignment: determine reported fluorescence inhibition for the given compounds.
Give the value in % but do not write % after it.

I am curious: what fluorescence inhibition value has been reported for CC#CCN1c2ccccc2[C@]23CC(C(=O)OC)N(C(C)=O)C2=NC(C(=O)OC)=C(C(=O)OC)C13 (some centres undefined) ?
21.5

What measured fluorescence inhibition goes with COc1ccc(C2OCC3OC(O)C(NC(C)=O)C(O)C3O2)cc1 (centres undefined) ?
4.65

Record request: fluorescence inhibition value, item `CCOC(=O)C1=C(C)CC(=NNC(=O)c2ccccc2O)CC1`
19.7

Give its fluorescence inhibition value. Item: CCN1C(=O)C(CC(=O)Nc2ccccc2)SC1=Nc1ccccn1 (centres undefined)
0.176

Name the recorded fluorescence inhibition for `COc1ccccc1C=NNC(=O)CCn1cnc2ccccc21` .
4.69

Quick one: fluorescence inhibition for COc1ccc(CNC(=O)C2CC=CC3CCN(C4CC4)C(=O)C32)cc1 (centres undefined) ?
19.3

Can you share its fluorescence inhibition? I mean this compound: `NC(Cc1cccc2ccccc12)=NOC(=O)Cc1cccs1`
2.6

Query: fluorescence inhibition; subject: `COc1cc(C=NNC(=O)C(=O)NCc2cccnc2)cc(OC)c1OC`
11.1

Need fluorescence inhibition of Cc1ccccc1CN1C(=O)C(C)SC1=NN=Cc1ccco1 (centres undefined) , thanks.
7.25

* * *

For each entry below, report its fluorescence inhibition value.
assay: hypoxia reporter signal reduction in M. tuberculosis – fluorescence, absorbance growth readout, primary screen (AID 1159583); details: M. tuberculosis hypoxia-regulated fluorescent reporter, active compounds read high, concentration not given here
Hit rate of the full screen: of about 300,000 compounds, about 310 (0.1%) were called active. Only a selection was taken, and actives are over-represented in it overall.
Dear colleague, please return just the value in %, with no unit written.

Would you mind telling me what fluorescence inhibition value was observed for `CCOc1cc(C=NNC(=O)CSc2nnc(C)s2)ccc1OCc1ccccc1Cl` ?
-1.48

# input molecule: `CCOc1ccc2c(c1)C(c1ccc(C)cc1)=NNC(c1ccc(C)cc1)=N2` ; wanted: its fluorescence inhibition
21.9

What value of measured fluorescence inhibition is listed for `O=C(Cc1cccs1)NN=C/C=C/c1ccco1` ?
8.6

Bench note: what fluorescence inhibition did `COc1ccc(C=NNC(=O)c2ccccc2OC)cc1COc1ccccc1[N+](=O)[O-]` show?
1.62

Any idea what its fluorescence inhibition is? The molecule is `CC(=NNC(=O)c1cc(-c2cccnc2)nc2ccccc12)c1ccc(O)cc1O`
2.22

# lookup: fluorescence inhibition of C[C@@]12CCC=CC1C(c1ccc(C(F)(F)F)cc1)N(Cc1ccccc1)C2=O (stereo not given in full)
11.1

I would be grateful if you could share the reported fluorescence inhibition for `CCOc1ccc(-c2nnc3ccc(SC)nn23)cc1` .
4.55

Reported fluorescence inhibition for `Cc1cc(C(=O)NN=Cc2ccc(-c3ccc([N+](=O)[O-])cc3C)o2)n[nH]1` : what is it?
5.18

Quick one: fluorescence inhibition of O=C1C2CC3C=CC2(O3)C2OCCCN12 (stereo not given) ?
8.99

Find the recorded fluorescence inhibition belonging to Cc1ccc(C2C3C(=O)N(C)C(=O)C3[C@]3(C)C(=O)N(CC4CC4)CC(=O)N23)o1 (stereo not given in full) and report it.
3.26

* * *

assay: hypoxia reporter signal reduction in M. tuberculosis – fluorescence, absorbance growth readout, primary screen (AID 1159583); details: M. tuberculosis hypoxia-regulated fluorescent reporter, active compounds read high, concentration not given here
In all, about 300,000 compounds went through this assay and about 310 (0.1%) were called active. This is one part of a sample in which actives are shown more often than they occur.
measurementName: fluorescence inhibition (%)
// note: answer is a bare numeric in %

May I ask what fluorescence inhibition has been recorded for Cc1ccccc1CN1C(Cc2ccccc2)COCCS1(=O)=O (centres undefined) ?
6.62

Data request, read-out fluorescence inhibition, for `CC(NCCN1CCOCC1)=C(C#N)C(N)=O`
7.39

Request the reported fluorescence inhibition associated with `COc1cccc(C=NNc2ncnc3c2ncn3Cc2ccccc2)c1O`
7.12

What value of fluorescence inhibition has been reported for the following compound? `C=CCn1c(SCC(=O)NC(=O)Cc2ccccc2)nc2ccccc2c1=O`
23.4

Quick one: fluorescence inhibition for CC(C)(C)OC(=O)NC(Cc1ccccc1)C(=O)NC(CO)C(O)C1CC1C(=O)NC1CC1 (centres undefined) ?
14.6

Item under review: CC(CC(O)(C=NO)c1ccccc1)=NO (centres undefined) . Reported fluorescence inhibition?
10

Give the measured fluorescence inhibition of COc1ccc(C2CC(=O)C=C(c3ccc(Cl)cc3C)C2)cc1 (centres undefined) .
14.8

Field request: fluorescence inhibition | item: `CC(=NO)C(C)(C)Nc1cccc(F)c1`
-1.15

// lookup fluorescence inhibition for `CN1CCSC1=CC=C1C(=O)N(C)C(=S)N1C`
41.3

Any idea what fluorescence inhibition was measured for COC(=O)C1C[C@@]2(Br)c3ccccc3N(S(=O)(=O)c3ccccc3)C2N1C(=O)OC (some centres undefined) ?
-0.203

Look at this compound and give its reported fluorescence inhibition. COC(=O)C1=C(C)N(Cc2ccccc2)C(=NCc2ccco2)NC1c1cccc(F)c1 (centres undefined)
-3.36

Look up fluorescence inhibition: `O=C(CC(=O)NC1CCCCC1)NN=Cc1ccccc1Cl`
2.92

Record request: fluorescence inhibition value, item `COc1ccc(N(CC(=O)NN=C(C)c2cccs2)S(=O)(=O)c2ccccc2)cc1Cl`
-6

Query: fluorescence inhibition; subject: `Cc1cc(C(=O)NN=Cc2cn[nH]c2-c2ccccc2)cs1`
-3.45

# fluorescence inhibition lookup, item `CC(=NNC(=O)c1c(C)nc2ccccn12)c1ccc(C(C)(C)C)cc1`
-2.47

// lookup fluorescence inhibition for `COc1cc(C=NNC(=O)Cc2c[nH]c3ccccc23)cc(OC)c1OC`
1.09

Using the record for `CSc1nsc(NN=Cc2ccccc2)c1C#N` , report its fluorescence inhibition.
1.35

Would you mind telling me what fluorescence inhibition value was observed for CC(=O)OCC1OC(CC=NOCC(O)C2OC3OC(C)(C)OC3C2O)C=CC1OC(C)=O (centres undefined) ?
9.33

Any idea what fluorescence inhibition was measured for `O=C(O)c1cccc2c1-c1ccccc1C2=NNc1ccccc1` ?
1.02

Sample CCOc1cccc(C=NN2C(C)CCCC2C)c1O (centres undefined) — what was its fluorescence inhibition?
-2.33

Endpoint output: fluorescence inhibition of `O=C(NN=Cc1c[nH]c2ccccc12)c1[nH]c2ccc(Br)cc2c1-c1ccccc1` . Value?
4.24

Record request: fluorescence inhibition value, item `O=C(CN1CCN(Cc2ccc(Cl)cc2)CC1)NN=Cc1cccs1`
6.55

// returns reported fluorescence inhibition for input C=C1CCN(C(C)C(=O)NCc2ccc(OC)cc2)S(=O)(=O)c2ccccc21 (centres undefined)
19.8

Quick one: fluorescence inhibition of `CCOC(=O)NN=CC=Cc1ccco1` ?
5.07

What does the record list as fluorescence inhibition for CC1(C)CC(=O)CC(=NNC(=O)C2CC2c2ccccc2)C1 (centres undefined) ?
-1.34

Consider the compound shown here: CC=CC=CC(=O)Nc1cccc(C2=NOC3(C2)CC(C(N)=O)N(C(=O)c2ccccc2C(=O)c2ccccc2)C3)c1 (centres undefined) What is its recorded fluorescence inhibition?
-0.767

Entry C#CCOCCOCCOCCNc1nc(N2CCN(C(=O)C(CCC(=O)O)n3cc(C(N)Cc4ccc(O)cc4)nn3)CC2)nc(N2CCN(C(=O)C(C(C)CC)n3cc(C(N)CO)nn3)CC2)n1 (centres undefined) has what fluorescence inhibition?
8.78

For `CC(C)c1ccc(C=NNC(=O)c2cc(-c3cccc([N+](=O)[O-])c3)n[nH]2)cc1` , what is its reported fluorescence inhibition?
16.3

Can you share its fluorescence inhibition? I mean this compound: `O=C(NN=Cc1c[nH]c2ccccc12)c1cc2ccccc2o1`
0.899

Need fluorescence inhibition, item COc1ccc(C2CC=C(C(=O)O)C(c3ccccc3F)N2S(=O)(=O)c2ccc(C)cc2)cc1OC (centres undefined)
19.4

# lookup: fluorescence inhibition of `C/C(C=NNC(=O)c1ccncc1)=C\c1ccccc1`
16.5

Could you share which fluorescence inhibition value was measured for `CN1C(=O)C(=NOC(=O)c2ccccc2Cl)c2ccccc21` ?
12.3

Quick one: fluorescence inhibition of COc1cccc(C2Oc3ccc(Br)cc3C(=O)C2OC(=O)NC2CCCC2)c1 (centres undefined) ?
2.63

Field request: fluorescence inhibition | item: `COc1ccc(C=NNc2c(Cl)cc(Cl)cc2Cl)cc1CN1CCOCC1`
-4.05

Report fluorescence inhibition for `O=C(O)c1cc(C(=O)O)cc(-c2ccc(C=c3sc4nc5ccccc5n4c3=O)o2)c1` please.
9.74

So what does the record say about fluorescence inhibition for N#Cc1ccc(OCC(=O)NN=CC2CC=CCC2)cc1 (centres undefined) ?
15.6

Query (compound): `Cc1ccc(C=NNC(=O)CCCOc2ccc(Cl)cc2Cl)cc1[N+](=O)[O-]` ; field requested: fluorescence inhibition
1.7

Please give the measured fluorescence inhibition for this compound: C=C1CCN(C(C(=O)NCc2ccc(OC)cc2)C(C)C)S(=O)(=O)c2ccccc21 (centres undefined)
1.86

Look at this compound and give its reported fluorescence inhibition. CCOC(=O)C1=C(N)n2c(sc(=Cc3ccco3)c2=O)=C(C(=O)OC)C1c1ccco1 (centres undefined)
-1.95

Tell me the measured fluorescence inhibition of `COc1cccc(C(=O)NN=C(c2ccccc2)c2ccccn2)c1` , please.
5

// fluorescence inhibition lookup, key: `Oc1ccccc1C=NNc1cccc2cccnc12`
2.03

I'd like to know its fluorescence inhibition. The compound in question is CC(C)C(NC(=O)c1ccccc1)C(=O)OCC(=O)N1CCCc2ccccc21 (centres undefined)
6.63

Would you kindly share the measured fluorescence inhibition for `N#CC(=Cc1ccc(O)c(O)c1)C(=O)c1ccc(O)c(O)c1` ?
-0.458

Item `O=C(CNC(=O)c1ccc2c(c1)OCCO2)NN=Cc1ccc(Cl)cc1` has what recorded fluorescence inhibition?
-0.656
